Target: Human Platelets (Homo sapiens)
Sequence (P21731 1-343): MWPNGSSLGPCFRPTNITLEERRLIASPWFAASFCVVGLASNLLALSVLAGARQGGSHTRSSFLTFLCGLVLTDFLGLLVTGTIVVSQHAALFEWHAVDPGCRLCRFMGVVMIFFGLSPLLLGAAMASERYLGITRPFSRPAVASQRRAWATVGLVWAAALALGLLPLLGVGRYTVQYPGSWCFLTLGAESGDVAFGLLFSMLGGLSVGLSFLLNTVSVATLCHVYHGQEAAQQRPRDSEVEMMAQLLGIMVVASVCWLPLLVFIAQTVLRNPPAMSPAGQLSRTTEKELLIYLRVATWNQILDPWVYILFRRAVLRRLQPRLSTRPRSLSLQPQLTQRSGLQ
Test: Inhibition of induced threshold aggregation of human platelets (aggregating agent U44069, platelet rich plasma)
Format: cell-based
Conditions: human platelet rich plasma; threshold aggregation induced by U44069; read-out: Inhibition of platelet aggregation (IC50 in µg/ml) (converted)
Experimental: Inhibition of Induced Threshold Aggregation of Human Human platelet rich plasma (PRP) is prepared from venous blood of male volunteers who have taken no medication for ten days prior to test. […] The supernatant (PRP) is transferred into plastic tubes. […] Platelet Aggregation is measured using a Payton Aggregometer and Recorder. […] The threshold (approximately 20 - 30% of maximum) aggregation concentration of the agonist to be used is first determined in the presence of the drug vehicle (control). […]
readout: IC50 (nM)

Examples with their reported IC50 follow.
Cc1ccc2c(c1)c1c(n2Cc2ccc(Cl)cc2)C(CC(=O)O)CCC1 (centres unmarked)	217
O=C(O)CC1CCCc2c1n(Cc1ccc(Cl)cc1)c1ccc(Br)cc21 (centres unmarked)	208

I = CC(C(=O)O)C1CCCc2c1n(Cc1ccc(Cl)cc1)c1ccc(F)cc21 (centres unmarked)
II = O=C(O)CC1CCCc2c1n(Cc1ccc(Cl)cc1)c1c(F)cccc21 (centres unmarked)
Hi there! Just curious which has the higher IC50 between I and II . Output the label that corresponds to your choice.
I

* * *

Molecular target: Human Platelets (Homo sapiens)
Sequence (P21731 1-343): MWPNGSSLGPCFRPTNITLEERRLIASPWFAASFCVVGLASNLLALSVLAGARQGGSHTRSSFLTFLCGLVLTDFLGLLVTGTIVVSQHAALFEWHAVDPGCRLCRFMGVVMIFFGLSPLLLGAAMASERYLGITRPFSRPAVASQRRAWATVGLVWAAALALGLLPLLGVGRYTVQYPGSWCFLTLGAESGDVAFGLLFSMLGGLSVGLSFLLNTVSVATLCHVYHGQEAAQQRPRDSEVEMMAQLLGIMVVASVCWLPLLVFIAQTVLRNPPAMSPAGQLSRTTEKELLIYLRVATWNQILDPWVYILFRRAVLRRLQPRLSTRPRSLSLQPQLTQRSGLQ
Assay: Inhibition of induced threshold aggregation of human platelets (aggregating agent U44069, platelet rich plasma)
Assay type: cell-based
Details: human platelet rich plasma; threshold aggregation induced by U44069; read-out: Inhibition of platelet aggregation (IC50 in µg/ml) (converted)
readout: IC50 (nM)

O=C(O)CC1CCCc2c1n(Cc1ccc(Cl)cc1)c1cccc(F)c21 (stereo not drawn)	457
O=C(O)CC1CCCc2c1n(Cc1ccc(Cl)cc1)c1ccc(F)cc21 (stereo not drawn) [Compound 1]	80.7
COc1ccc(Cn2c3c(c4cc(F)ccc42)CCCC3CC(=O)O)cc1 (stereo not drawn)	408
O=C(O)CC1CCCc2c1n(Cc1ccc(Cl)cc1)c1ccc(F)cc21 (single isomer, unassigned; (-)) [Compound 3]	134
CC(C)n1c2c(c3cc(F)ccc31)CCCC2CC(=O)O (stereo not drawn)	47000
O=C(O)CC1CCCc2c1n(CCc1ccc(Cl)cc1)c1ccc(F)cc21 (stereo not drawn)	35200

a = COc1ccc2c(c1)c1c(n2Cc2ccc(Cl)cc2)C(CC(=O)O)CCC1 (stereo not drawn)
b = O=C(O)CC1CCCc2c1[nH]c1ccc(F)cc21 (stereo not drawn)
Hi there! Just curious which has the higher IC50 between a and b . Output the label that corresponds to your choice.
b
(b: 13800 nM, a: 782 nM)
